Data provenance is PubChem BioAssay (NCI).

- Test system: SNB-19 CNS
- ASSAY: NCI-60 one-dose screen, 48 h
- CONDITION: 10 µM unless noted
The panel holds about 83,000 compounds, 20% with a hit somewhere; the sample as a whole holds those more often. Calls of active or inactive are those of the source. Rule for the calls: active = growth percent below 10; inactive = the rest.
Possible outcomes: active, inactive

# MOLECULE, TARGET OR SYSTEM, CAT
records = [
    ("CC(=O)ON1CCCC(P(=O)(OCOC(=O)C(C)(C)C)OCOC(=O)C(C)(C)C)C1=O (stereo not given)", "SNB-19 CNS", "active"),
    ("COC(=O)/C=C1\\SC(=Nc2cccc(Cl)c2)N(CCc2c[nH]c3ccccc23)C1=O", "SNB-19 CNS", "inactive"),
    ("CSc1nc(-c2ccco2)c2c(N)[nH]nc2n1", "SNB-19 CNS", "inactive"),
    ("CS(=O)(=O)O[C@@H]1C(=O)N(c2cc3c4ccccc4ccc3c3ccccc23)[C@H]1c1ccc(F)cn1", "SNB-19 CNS", "inactive"),
    ("COc1ccc2nc(-c3ccc(Cl)cc3)cc(C(=O)N3N=C(c4ccc(N)cc4)CC3c3ccccc3)c2c1 (stereo not given)", "SNB-19 CNS", "inactive"),
]
